# Tested on: GlcNAc(b1-3)[GlcNAc(b1-6)]Gal(b1-4)GlcNAc
# Assay details: glycan array binding signal (z-score within array); higher = stronger binding
# Condition set: glycan notation: IUPAC condensed, linker removed
Shown is part of a subset that was picked to be rich in the strongest signals.

Binder	glycan array binding signal (z-score)
DC-SIGN (Canis lupus), XP_853402 (protein) AGLCRPCPWKWELFQESCYFFSQTQNTWKESISACQNLRAQLVIINSTEEQKFLKSWNTRNNQRTWIGLSDHHNEGSWKWVDNTPLQLSFWKEGEPNNHGDEDCVELYSDGWNDNRCSTENFWICKKPSSPCPGPGLNDIFEAQKIEWHE	-0.336
EULS2 M1 (Oryza sativa) (protein) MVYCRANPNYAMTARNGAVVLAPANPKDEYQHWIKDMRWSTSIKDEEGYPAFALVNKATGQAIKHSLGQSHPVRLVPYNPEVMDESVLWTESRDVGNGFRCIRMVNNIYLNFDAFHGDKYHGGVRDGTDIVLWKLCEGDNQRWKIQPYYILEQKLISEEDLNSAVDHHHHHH	-0.56
rCnSL-proA (Clitocybe nebularis) (protein) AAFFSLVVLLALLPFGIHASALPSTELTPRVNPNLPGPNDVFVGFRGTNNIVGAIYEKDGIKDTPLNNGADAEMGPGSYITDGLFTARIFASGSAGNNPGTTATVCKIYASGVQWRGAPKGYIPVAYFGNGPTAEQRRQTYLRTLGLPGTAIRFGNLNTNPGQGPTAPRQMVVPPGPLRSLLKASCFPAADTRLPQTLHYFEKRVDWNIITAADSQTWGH	-0.723

Each recorded value in this set is attributed to the supplement of paper PMC8728848.
